Target: UniProt:Q9HC16
Sequence (Q9HC16 whole entry): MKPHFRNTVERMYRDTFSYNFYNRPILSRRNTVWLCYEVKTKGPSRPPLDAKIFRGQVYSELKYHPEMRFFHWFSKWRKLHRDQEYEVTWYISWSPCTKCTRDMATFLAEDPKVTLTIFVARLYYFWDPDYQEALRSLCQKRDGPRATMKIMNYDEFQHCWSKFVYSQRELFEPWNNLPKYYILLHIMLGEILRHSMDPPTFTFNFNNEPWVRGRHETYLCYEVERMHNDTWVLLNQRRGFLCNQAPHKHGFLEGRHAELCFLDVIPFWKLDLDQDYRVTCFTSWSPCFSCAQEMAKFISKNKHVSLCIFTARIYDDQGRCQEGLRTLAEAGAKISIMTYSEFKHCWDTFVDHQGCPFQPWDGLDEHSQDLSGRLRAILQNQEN
Assay: Inhibition of Vif-mediated human A3G degradation in HEK-293T cells cotransfected with hA3G and Vif at 20 uM by western blot analysis relative to control
Assay type: cell-based
test.readout: inhibition

COc1ccc(NC(=O)c2ccc3c(c2)NCCO3)cc1 : < 25%
COc1ccc(NC(=O)c2ccc(OCCCN3CCN(C)CC3)c(N)c2)cc1 : < 25%
COc1ccc(NC(=O)c2ccc(OCCCN(C)C)c(N)c2)cc1 : < 25%

Input CCC(=O)Nc1cc(C(=O)Nc2ccc(-c3cc4ccccc4[nH]3)cc2)ccc1OC . Output inhibition: > 50%

For reference, reported inhibition for COc1ccc(NC(=O)c2ccc(OC(C)C)c([N+](=O)[O-])c2)cc1 stands at < 25%

The compound listed as CCCOc1ccc(C(=O)Nc2ccc(OC)cc2)cc1[N+](=O)[O-] shows inhibition equal to < 25%

Consider COc1ccc(NC(=O)c2ccc(OCCCN3CCN(C)CC3)c([N+](=O)[O-])c2)cc1 . Its measured inhibition is < 25%

Query CC(C)Oc1ccc(C(=O)Nc2ccc(CN3CCN(C)CC3)c(C(F)(F)F)c2)cc1[N+](=O)[O-] yields inhibition of < 25%

inhibition in this record for CCCOc1ccc(C(=O)Nc2ccc(OC)cc2)cc1NC(=O)CC : 25%

So for CCC(=O)Nc1cc(C(=O)Nn2c(C)nnc2S)ccc1OC , the logged inhibition turned out to be > 50%

====

Experiment: Cytotoxicity against human Huh7.5 cells assessed as inhibition of cell growth measured after 96 hrs by MTT assay
Assay type: toxicity, cell-based, Huh-7.5
Details: Huh7.5 cells
test.readout: CC50 at 96 h (µM)
Response body: numeric value in µM, unit text excluded.

Noted for CN1CCN(Cc2ccc(NC(=O)c3ccc(OCCCCl)c([N+](=O)[O-])c3)cn2)CC1 : its CC50 at 96 h reads 12.6

====

System: Huh-7.5
Test: Cytotoxicity against human Huh7.5 cells assessed as inhibition of cell growth measured after 96 hrs by MTT assay
Type: toxicity, cell-based
Conditions: huh-7.5, 96 h
CC50 values by entry
Write it as a number; the unit µM goes unstated.

Example cases with answers are listed next.
CN1CCN(Cc2ccc(NC(=O)c3ccc(OCCCl)c([N+](=O)[O-])c3)cc2C(F)(F)F)CC1 : 9.04
CN1CCN(Cc2ccc(NC(=O)c3ccc(OCCCCl)c(F)c3)cc2C(F)(F)F)CC1 : 8.8
COc1ccc(NC(=O)c2ccc(OCCCN(C)C)c([N+](=O)[O-])c2)cc1 : 126
CCC(=O)Nc1cc(C(=O)Nc2ccc(OC)cc2)ccc1OC : 109
CCC(=O)Nc1cc(C(=O)Nc2ccc(CN3CCN(C)CC3)c(C(F)(F)F)c2)ccc1OCCCCl : 7.87
CCC(=O)Nc1cc(C(=O)Nc2ccc(CN3CCN(C)CC3)c(C(F)(F)F)c2)ccc1OC(C)C : 15.3
COc1ccc(C(=O)Nc2ccc(N(C)C)cc2)cc1[N+](=O)[O-] : 88.2
COc1ccc(NC(=O)c2ccc3c(c2)NC(=O)CO3)cc1 : 77.3

Turning now to a further compound:
Bench note, Huh-7.5: entry CN1CCN(Cc2ccc(NC(=O)c3ccc(OCCCCCl)c([N+](=O)[O-])c3)cc2C(F)(F)F)CC1 , its CC50 = 3.74
